Target: PSMA Fab (anti-PSMA Fab; 006 PSMA Fab)
Assay: phage binding ELISA; clonal phage supernatant on biotinylated PSMA Fab captured on neutravidin plate; anti-M13 HRP detection
Exercise: state measured Phage binding ELISA signal, Anti-PSMA Fab for each of the binders provided.
Give bare numbers.

Solved entries (count: 2):
QMPLCIPQWMCTNN [Phage-2734 (Peptide-180 library clone)]    0.723
VSNWCKPAWMCGTT [Phage-2731 (Peptide-180 library clone)]    0.733

// each binder listed below needs its Phage binding ELISA signal, Anti-PSMA Fab
1. TNNWCIPSWMCDIR [Phage-2737 (Peptide-180 library clone)]
2. EMKWCKPEWMCPWM [Phage-2730 (Peptide-180 library clone)]

Result:
1. 0.718
2. 0.733
